- protocol.summary: NCI Yeast Anticancer Drug Screen. Data for the rad50EPP+ strain (AID 151);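 also: 0% = growth of vehicle-treated control cultures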
- condition.description: S. cerevisiae rad50 mutant strain, at 1.2 µM
About 79,000 compounds went through this panel and 15% of them were active in at least one assay; those are over-represented in the sample as a whole. The source made the active and inactive calls. Rule as the data show it: active = growth inhibition above about 70%; inactive = the rest.
Respond using exactly one of the listed classes: active, inactive

Below, 10 molecules whose answers are already recorded.
molecule	class
CN(C)C[C@H]1CC[C@@H](CN(C)C)C1=O	inactive
O=C(c1cc(Br)ccc1O)c1cc(Br)ccc1O	inactive
COc1cc(/C=C2\CCc3ccccc3C2=O)cc(OC)c1OC	inactive
Fc1ccc(NC(=S)SCc2ccc3c(c2)OCO3)cc1F	inactive
CC(C)C1=CCC2C(=C1)CCC1C(C)(C(=O)O)CCCC21C (configuration not stated) (tested in a mixture with another compound)	inactive
Cc1ccc(CCC2=CCCc3c2ccc2ccccc32)cc1	inactive
O=C(OCCN1CCCCCC1)C(c1ccsc1)C1CCCCC1 (configuration not stated)	inactive
CNC(=O)OCc1c(COC(=O)NC)c(-c2ccc(Cl)c(Cl)c2)n2c1CCC2	inactive
Cn1c(=O)c2ccccc2c2ccccc21	inactive
CCc1ccc(NS(=O)(=O)c2ccccc2)c([N+](=O)[O-])c1	inactive

Query :: Answer briefly: the call reported for S=C(S)NN1CCOCC1 in this assay.
Result :: active

Query :: Answer briefly: the call reported for CC/C(=C(\c1ccccc1)c1ccc(OCCN(C)C)cc1)c1ccccc1 in this assay.
Result :: inactive

Query :: Answer briefly: the call reported for O=[N+]([O-])c1ccc2nc3ccccc3cc2c1 in this assay.
Result :: inactive

Query :: Answer briefly: the call reported for O=Nc1c(NO)ccc2nn(-c3ccccc3)nc12 in this assay.
Result :: inactive

Query :: Answer briefly: the call reported for O=C(Nc1ccc(Cl)cc1)OCC#CCCl in this assay.
Result :: active

Query :: Answer briefly: the call reported for NC(=NCc1ccccc1)N/N=C\c1ccnc2ccccc12 in this assay.
Result :: inactive

Query :: Answer briefly: the call reported for Clc1ccc(SC(/C=C/NNC2=NC(c3ccccc3)C(c3ccccc3)=NN2)c2ccccc2)cc1 (configuration not stated) in this assay.
Result :: inactive

Query :: Answer briefly: the call reported for CCCc1cc(C(=O)OCC)cc(CCC)c1O in this assay.
Result :: inactive

Query :: Answer briefly: the call reported for CN1c2ccc(Cl)cc2C(=O)NC1c1ccc([N+](=O)[O-])s1 (configuration not stated) in this assay.
Result :: inactive

###

- protocol.summary: NCI Yeast Anticancer Drug Screen. Data for the rad50 strain (AID 155);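 also: 0% = growth of vehicle-only cultures of the same strain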
- condition.description: S. cerevisiae rad50 strain growth inhibition; at 50.0 µM; stronger effect = higher value
- Method: Growth inhibition of yeast strains with defined genetic alterations is measured as a screen for potential anti-cancer activity. Selected strains with alterations in DNA damage repair or cell cycle control were exposed to compounds and growth inhibition was measured relative to vehicle treated controls. The strain used in this assay is rad50
About 79,000 compounds went through this panel and 15% of them were active in at least one assay; those are over-represented in the sample as a whole.
Where growth inhibition equals or exceeds 90%, the correct label is true; where it does not, the label is false.

molecule	class
O=C1OC(CCl)CN1/N=C/c1ccc([N+](=O)[O-])o1 (stereo unspecified)	false

Query :: Check the entry O=C(COC(=O)c1cc(O)c(O)c(O)c1)c1ccc(-c2ccccc2)cc1 : does growth inhibition equal or exceed 90%?
Result :: false

Query :: Check the entry C/C(=N\O)C1CC2C=C(C#N)C1N(Cc1ccccc1)C2 (stereo unspecified) : does growth inhibition equal or exceed 90%?
Result :: false

Query :: Check the entry COc1ccc(/C=C/C(=O)C(C)(C)Br)cc1 : does growth inhibition equal or exceed 90%?
Result :: true

Query :: Check the entry CC(=O)OCC(=O)C1(O)CCC2C3CCC4CCCCC4(C)C3CCC21C (stereo unspecified) : does growth inhibition equal or exceed 90%?
Result :: false

Query :: Check the entry Cc1ccc(-c2ccc(Nc3c4ccccc4nc4ccccc34)cc2)cn1 : does growth inhibition equal or exceed 90%?
Result :: true

Query :: Check the entry O=C1C=CC(=C(c2ccccc2)c2ccccc2)c2ccccc21 : does growth inhibition equal or exceed 90%?
Result :: false

Query :: Check the entry CCCCCCCCCCCCCC[N+](C)(CC(=O)[O-])Cc1ccccc1 (stereo unspecified) : does growth inhibition equal or exceed 90%?
Result :: true

###

- protocol.summary: NCI Yeast Anticancer Drug Screen. Data for the sgs1 strain (AID 173);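 also: 0% = growth of vehicle-only control cultures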
- condition.description: S. cerevisiae sgs1 mutant, at 100.0 µM, stronger effect = higher value
The panel holds about 79,000 compounds, 15% with a hit somewhere; the sample as a whole holds those more often.
endpoint.name: growth inhibition (%)
I only need the number, in %, no unit after it.

Below are worked cases with known answers.
compound	endpoint.name	measured
O=C1c2ccccc2C(=O)c2c(NC3CCCCC3)ccc(Nc3ccc(S(=O)(=O)O)cc3)c21	growth inhibition	72
[N-]=N[N+]#I1OC(C(F)(F)F)(C(F)(F)F)c2ccccc21	growth inhibition	99
c1ccc2c(c1)Oc1cccc3cccc-2c13	growth inhibition	60
O=c1ssc2ncccc12	growth inhibition	99

Record CSC(=S)Nc1cccc(C)n1 . Reported growth inhibition: 62

Record S=C(N/N=C(/c1ccccc1)c1ccccn1)N1CCCCCC1 . Reported growth inhibition: 7

Record O=[N+]([O-])c1ccc2nc3ccccc3cc2c1 . Reported growth inhibition: 97

Record CC1(C)C(=O)OC(n2cc(F)c(=O)[nH]c2=O)C1=O (stereo not given) . Reported growth inhibition: 67

Record COc1ccc(/C=C/C(=O)C(C)(C)Br)cc1 . Reported growth inhibition: 95

Record CC(C)c1cc(C(C)C)c(O)c(C([O-])[O-])c1.CC(C)c1cc(C(C)C)c(O)c(C([O-])[O-])c1.CC(C)c1cc(C(C)C)c(O)c(C([OH2+])[OH2+])c1.CC(C)c1cc(C(C)C)c(O)c(C([OH2+])[OH2+])c1.[Cu+2].[Cu+2].[OH3+].[OH3+] . Reported growth inhibition: 93

###

- protocol.summary: NCI Yeast Anticancer Drug Screen. Data for the bub3 strain (AID 167)
- condition.description: S. cerevisiae bub3 mutant strain, at 3.7 µM, stronger effect = higher value
This is part of a sample that, as a whole, favours compounds with a hit. Of some 79,000 tested, about 15% had one in any assay. Active and inactive are the calls of the source. Cut-off read from the data, not from the text of the source: active = growth inhibition above about 70%; inactive = the rest.
endpoint.name: growth inhibition

compound	growth inhibition
OC1(c2ccccc2)CSC2=Nc3ccccc3C3CCN1N23 (configuration not stated)	-54% (inactive)
CN(CCc1ccccn1)c1ccc2c(c1)Cc1ccccc1-2	-4% (inactive)
O=S(=O)(CCCl)c1ccccc1Cl	6% (inactive)
CCCCCCCCCCC1CCC(=O)O1 (configuration not stated)	0% (inactive)

Record O=C(O)CNc1ccc(Cl)c(Cl)c1 . Reported growth inhibition: -12% (inactive)

Record CCN(CC)CC(O)c1ccc2ccc3ccccc3c2c1 (configuration not stated) . Reported growth inhibition: 4% (inactive)

Record CCOC(=O)c1cnc2c(C(F)(F)F)cccc2c1N=[N+]=[N-] . Reported growth inhibition: -3% (inactive)

Record CCOc1ccc2c(c1)c(CC(=O)O)cn2C . Reported growth inhibition: 0% (inactive)

Record CC1=C(C)Cc2c(O)ccc(O)c2C1 . Reported growth inhibition: -5% (inactive)

Record Clc1ccc(SC(/C=C/NNC2=NC(c3ccccc3)C(c3ccccc3)=NN2)c2ccccc2)cc1 (configuration not stated) . Reported growth inhibition: -1% (inactive)

Record O=C1C2C(C(=O)N1c1ccc(OCc3ccccc3)cc1)C1c3ccccc3C2C2CCCCN21 (configuration not stated) . Reported growth inhibition: -8% (inactive)

Record NC(=NCc1ccccc1)N/N=C\c1ccnc2ccccc12 . Reported growth inhibition: 0% (inactive)

###

- protocol.summary: NCI Yeast Anticancer Drug Screen. Data for the rad50EPP+ strain (AID 151);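 also: 0% = growth of vehicle-treated control cultures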
- condition.description: S. cerevisiae rad50 mutant strain, at 3.7 µM, stronger effect = higher value
The panel holds about 79,000 compounds, 15% with a hit somewhere; the sample as a whole holds those more often.
endpoint.name: growth inhibition (%)
I only need the number, in %, no unit after it.

Below are worked cases with known answers.
compound	endpoint.name	measured
C#CCCCc1ccccc1	growth inhibition	-72
NC(=S)N/N=C\c1nccc2ccccc12	growth inhibition	-1
N#CN=Nc1cc(Cl)c(N=NC#N)cc1Cl	growth inhibition	-3
O=[N+]([O-])CC(SCc1ccccc1)c1ccc2c(c1)OCO2 (configuration not stated)	growth inhibition	91
O=C(NCCCCCCCN1CCCCCCC1)C(C1CCCCC1)C1CCCCC1	growth inhibition	-1

Record CC(CC(C)(C)[N+](C)(C)C)[N+](C)(C)C (configuration not stated) . Reported growth inhibition: 1

Record O=C1OC(CCl)CN1/N=C/c1ccc([N+](=O)[O-])o1 (configuration not stated) . Reported growth inhibition: -17

Record O=C1C=CC(=C(c2ccccc2)c2ccccc2)c2ccccc21 . Reported growth inhibition: 7

Record O=C(c1ccc(Cl)cc1Cl)C(Cl)Cl . Reported growth inhibition: 53

Record CC1=C(SCCO)C(=O)c2ccccc2C1=O . Reported growth inhibition: 5

Record O=C([O][Sn]([O]C(=O)c1ccccc1)([c]1ccccc1)[c]1ccccc1)c1ccccc1 . Reported growth inhibition: 18

Record Cc1ccc(NC(=O)/C(Cl)=C(\Cl)C(=O)O)cc1C . Reported growth inhibition: 16
